Biological target: human P2X2/3 receptors (Homo sapiens, UniProt P56373+Q9UBL9)
Construct: expressed in transfected cells; host or cells: human astrocytoma 1321N1 (1312N1 [sic])
Sequence (P56373 whole entry): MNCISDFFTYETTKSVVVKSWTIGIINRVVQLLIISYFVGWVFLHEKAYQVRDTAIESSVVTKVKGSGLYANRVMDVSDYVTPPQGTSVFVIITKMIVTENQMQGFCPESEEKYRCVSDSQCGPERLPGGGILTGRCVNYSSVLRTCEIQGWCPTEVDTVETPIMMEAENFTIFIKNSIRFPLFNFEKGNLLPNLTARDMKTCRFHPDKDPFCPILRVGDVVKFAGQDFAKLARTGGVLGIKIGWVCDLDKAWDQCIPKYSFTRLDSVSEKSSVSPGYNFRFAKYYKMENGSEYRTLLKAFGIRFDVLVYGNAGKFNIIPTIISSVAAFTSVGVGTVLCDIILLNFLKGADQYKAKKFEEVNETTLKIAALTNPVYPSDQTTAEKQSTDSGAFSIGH
Sequence (Q9UBL9 whole entry): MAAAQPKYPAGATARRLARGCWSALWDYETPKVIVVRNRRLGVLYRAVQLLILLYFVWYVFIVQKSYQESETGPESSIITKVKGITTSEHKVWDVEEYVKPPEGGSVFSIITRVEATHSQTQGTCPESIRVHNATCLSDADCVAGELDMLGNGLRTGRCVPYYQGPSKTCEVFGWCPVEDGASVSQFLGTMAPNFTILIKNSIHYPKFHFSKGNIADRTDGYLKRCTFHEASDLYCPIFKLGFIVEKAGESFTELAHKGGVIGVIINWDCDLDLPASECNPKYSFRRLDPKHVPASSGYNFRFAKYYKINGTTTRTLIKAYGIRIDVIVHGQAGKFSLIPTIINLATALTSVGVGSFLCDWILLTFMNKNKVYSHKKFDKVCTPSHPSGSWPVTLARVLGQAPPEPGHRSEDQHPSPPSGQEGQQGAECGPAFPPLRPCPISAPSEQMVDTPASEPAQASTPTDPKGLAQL
Assay: Intracellular calcium measurement, antagonist activity at human P2X2/3 receptors (hP2X23 1321N1), Fluo8
Type: cell-based
Conditions: ratio of column 4) hP2X2/3 to column 3) hP2X3, 1321N1
Form field: hP2X23/hP2X3* Selectivity (1321N1) (one value per entry).
Hey, just send me the number, nothing else.

Sample records with hP2X23/hP2X3* Selectivity (1321N1):
> print(dat)
                                   molecule  reported.measurement
1  CC(C)N1Cc2c(n(CC(=O)Nc3ccc(F)cn3)c3cc(NC4CC4)nn3c2=O)C1=O                   128
2  CC(C)N1Cc2c(n(CC(=O)Nc3ccc(F)cn3)c3cc(NC(=O)OC(C)(C)C)nn3c2=O)C1=O                    58
3  COC[C@@H](C)N1Cc2c(n(CC(=O)Nc3ccc(F)cn3)c3cc(C(C)C)nn3c2=O)C1=O                   241
4  CC(C)N1Cc2c(n(CC(=O)Nc3ccc(F)cn3)c3cc(NCCOCc4ccccc4)nn3c2=O)C1=O                   114
5  Cc1ccc(NC(=O)Cn2c3c(c(=O)n4nc(C(C)(C)C)cc24)CN(C2CCC2)C3=O)nc1                    11
6  CC(C)N1Cc2c(n(CC(=O)Nc3ccc(F)cn3)c3cc(-c4ccccc4)nn3c2=O)C1=O                   139
7  COC[C@H](C)N1Cc2c(n(CC(=O)Nc3ccc(F)cn3)c3cc(C(=O)N(C)C4CC4)nn3c2=O)C1=O                   277
8  CCc1cc2n(CC(=O)Nc3ccc(F)cn3)c3c(c(=O)n2n1)CN(CC1CCN(C(=O)OC(C)(C)C)C1)C3=O (stereo not drawn)                    31

Query :: What does the record list as hP2X23/hP2X3* Selectivity (1321N1) for Cc1ccc(NC(=O)Cn2c3c(c(=O)n4nc(C(C)(C)C)cc24)CN(C(C)C)C3=O)nc1 ?
Result :: 54
